target: CAVB (Homo sapiens, UniProt Q9Y2D0); construct: made in house; host or cells: E. coli; test: Isothermal titration calorimetry (ITC), CAVB; format: binding; conditions: pH 7.0, 37 °C, read-out: Observed Dissociation Constant (Kd_obs), CAVB, ITC data in brackets
Sequence (Q9Y2D0 34-317): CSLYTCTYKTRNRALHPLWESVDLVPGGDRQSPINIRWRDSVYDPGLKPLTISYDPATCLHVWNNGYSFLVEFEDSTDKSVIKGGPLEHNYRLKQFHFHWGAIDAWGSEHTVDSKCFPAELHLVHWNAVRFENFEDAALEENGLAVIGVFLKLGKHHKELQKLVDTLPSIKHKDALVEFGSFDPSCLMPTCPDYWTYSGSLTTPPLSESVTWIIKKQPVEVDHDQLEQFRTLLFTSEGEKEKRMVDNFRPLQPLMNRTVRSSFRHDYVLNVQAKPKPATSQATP
measured-property: Kd (nM)

>>> print(df.to_string())
                                   compound                        target_entity  measured_property  scale_unit  observed_value
0  CCOC(=O)c1sc(N(CCC(=O)OC)c2ccc(S(N)(=O)=O)cc2)nc1C [Compound 32]  CAVB (Homo sapiens, UniProt Q9Y2D0)                 Kd          nM              41
